Provide the reported OD450 of each item.
- measuredOn: T1, human MSLN-R1-his protein (human, UniProt Q13421 296-390)
- T1 construct: Region 1 of human mesothelin, made in HEK293E cells, His-tagged; also called human MSLN-R1 protein; hMSLN-R1-his; not shown: His tag
- T1 chain: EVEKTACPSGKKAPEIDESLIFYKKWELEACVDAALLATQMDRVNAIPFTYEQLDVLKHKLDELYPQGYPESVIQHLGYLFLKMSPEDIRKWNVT
- protocolDetails: ELISA on coated MSLN-R1; antibody 10 nM
Answers are plain numbers, in OD450.

binder	unitString	OD450
S009-F8-33.12 (antibody, human IgG1, kappa, V domains shown) VH: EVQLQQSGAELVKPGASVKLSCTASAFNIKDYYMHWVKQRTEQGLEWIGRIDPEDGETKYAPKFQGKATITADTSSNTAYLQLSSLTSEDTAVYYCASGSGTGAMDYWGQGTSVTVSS VL: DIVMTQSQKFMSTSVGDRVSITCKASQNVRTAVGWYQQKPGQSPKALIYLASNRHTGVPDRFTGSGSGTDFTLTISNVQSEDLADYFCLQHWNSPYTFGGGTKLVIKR	OD450	2.66
S009-F8-15.19 (antibody, human IgG1, kappa, V domains shown) VH: EFQLQQSGPELVKPGASVKISCKASGYSFTDYNMNWVKQSNGKSLEWIGIINPYYGTTSNNQNFKGKATLTVDQSSSTAYMQLNSLTSDDSAVYYCARWLRRDAMDYWGQGTSVTVSS VL: DIVMTPSHKFMSTSVGDRVSIACKASQDVGSSVAWYQQKPGQSPKLLIYWTSTRHTGVPDRFTGSGSGTDFTLTISNVQSEDLADYFCQQYSSYPWTFGGGTKLEIKR	OD450	1.55
S009-F8-36.12 (antibody, human IgG1, kappa, V domains shown) VH: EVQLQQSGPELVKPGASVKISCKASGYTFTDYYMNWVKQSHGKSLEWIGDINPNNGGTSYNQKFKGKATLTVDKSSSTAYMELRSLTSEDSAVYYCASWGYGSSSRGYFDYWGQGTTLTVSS VL: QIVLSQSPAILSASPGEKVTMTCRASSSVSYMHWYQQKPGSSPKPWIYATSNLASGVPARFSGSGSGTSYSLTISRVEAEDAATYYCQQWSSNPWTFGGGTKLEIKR	OD450	0.04
S009-F8-12.13 (antibody, human IgG1, kappa, V domains shown) VH: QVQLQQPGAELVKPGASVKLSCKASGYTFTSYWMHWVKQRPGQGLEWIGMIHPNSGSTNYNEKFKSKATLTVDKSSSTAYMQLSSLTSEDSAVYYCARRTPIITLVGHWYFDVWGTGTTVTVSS VL: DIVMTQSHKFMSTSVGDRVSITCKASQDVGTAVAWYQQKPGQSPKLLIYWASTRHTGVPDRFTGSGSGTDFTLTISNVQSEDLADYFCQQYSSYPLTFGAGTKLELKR	OD450	2.16
S009-F8-29.1 (antibody, human IgG1, kappa, V domains shown) VH: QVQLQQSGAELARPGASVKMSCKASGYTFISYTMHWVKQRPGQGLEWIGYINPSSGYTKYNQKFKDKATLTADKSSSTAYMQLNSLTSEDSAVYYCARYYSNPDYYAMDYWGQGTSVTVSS VL: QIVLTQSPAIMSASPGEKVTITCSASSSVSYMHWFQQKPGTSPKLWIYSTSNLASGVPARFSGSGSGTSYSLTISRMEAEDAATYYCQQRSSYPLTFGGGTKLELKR	OD450	0.04

Batch request: OD450 for each of the following binders.
1. S009-F8-32.3 (antibody, human IgG1, kappa, V domains shown) VH: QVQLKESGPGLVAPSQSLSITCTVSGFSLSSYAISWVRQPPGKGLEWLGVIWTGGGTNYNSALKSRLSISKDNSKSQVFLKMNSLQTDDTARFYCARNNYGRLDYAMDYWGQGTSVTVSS VL: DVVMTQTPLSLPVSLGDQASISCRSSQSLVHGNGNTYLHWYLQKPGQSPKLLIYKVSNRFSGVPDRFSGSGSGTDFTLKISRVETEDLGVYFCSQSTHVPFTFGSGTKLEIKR
2. S009-F8-22.23 (antibody, human IgG1, kappa, V domains shown) VH: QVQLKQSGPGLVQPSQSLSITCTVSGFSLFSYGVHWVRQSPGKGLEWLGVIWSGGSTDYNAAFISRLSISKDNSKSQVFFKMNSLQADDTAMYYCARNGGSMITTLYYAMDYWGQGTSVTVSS VL: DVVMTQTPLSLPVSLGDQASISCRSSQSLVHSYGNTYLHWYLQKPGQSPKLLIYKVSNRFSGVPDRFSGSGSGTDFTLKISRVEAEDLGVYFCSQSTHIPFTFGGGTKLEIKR
3. S009-F8-18.9 (antibody, human IgG1, kappa, V domains shown) VH: EFQLQQSGPELVKPGASVKISCKASGYSFTDYNMNWVKQSNGKSLEWIGIINPNYGTTSYNQKFKGRATLTVDQSSSTAYVQLNSLTSEDSAVYYCARGGYDNEAMDYWGQGTSVTVSS VL: QIVLTQSPAIMSASPGEKVTMTCSASSSVSYMHWYQQKSGTSPKRWIYDTSKLASGVPARFSGSGSGTSYSLTISSMEAEDAATYYCQQWSSNPPTFGAGTKLELKR
4. S009-F8-5.15 (antibody, human IgG1, kappa, V domains shown) VH: QVQLQQPGTELVKPGASVKLSCKASGYTFTSYWMHWVKQRPGQGLEWIGHSNPSNGGTNYNEKFKSKATLTVDKSSSTAYMQLSSLTSEDSAVYYCARWVRGSNYEYFDVWGTGTTVTVSS VL: DIVMTQSQKFMSTTVGDRVSIICKASQNVGSAVAWCQQKPGQSPKLLIYSASNRYTGVPDRFTGSGSGTDFTLTISNMQSEDLADYFCQQYSSYPLTFAGGTKLEIKR
5. S009-F8-24.14 (antibody, human IgG1, kappa, V domains shown) VH: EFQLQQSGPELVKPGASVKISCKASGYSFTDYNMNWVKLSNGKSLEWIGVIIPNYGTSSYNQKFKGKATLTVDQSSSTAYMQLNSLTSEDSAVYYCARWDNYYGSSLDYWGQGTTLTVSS VL: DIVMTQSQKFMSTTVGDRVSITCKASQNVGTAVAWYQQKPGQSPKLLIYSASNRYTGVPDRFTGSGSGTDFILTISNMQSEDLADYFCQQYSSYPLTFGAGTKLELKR

A.
1: 2.79; 2: 2.51; 3: 2.12; 4: 1.65; 5: 2.24
